# Subject Of Test: full-length H1 A/California/07/2009 HA expressed on 293T cells (influenza A virus A/California/07/2009 (H1N1))
# Assay Details: cell-based or functional assay
Endpoint: IC50 of true virus neutralization H1N1 CA/09

input: If you can, please state the reported IC50 of true virus neutralization H1N1 CA/09 value of S40 (antibody, V domains shown) VH: EVQLVESGGGLVQPGGSLRLSCAASGFTIGDFGIHWVRQAPGKGLEWVAGIWPFGGYTYYADSVKGRFTISADTSKNTAYLQMNSLRAEDTAVYYCARFVNWDGDYMDYWGQGTLVTVSS VL: DIQMTQSPSSLSASVGDRVTITCRASQDVGFYVAWYQQKPGKAPKLLISWSSYLYSGVPSRFSGSGSGTDFTLTISSLQPEDFATYYCQQYYNYPLTFGQGTKVEIKR .
output: 436 µg/mL

input: Can you look up the measured IC50 of true virus neutralization H1N1 CA/09 of C05 (antibody, V domains shown) VH: PVQLQESGGGLVQPGESLRLSCVGSGSSFGESTLSYYAVSWVRQAPGKGLEWLSIINAGGGDIDYADSVEGRFTISRDNSKETLYLQMTNLRVEDTGVYYCAKHMSMQQVVSAGWERADLVGDAFDVWGQGTMVTVSS VL: DIQLTQSPSSLSASVGDRVTLTCQASQDIRKFLNWYQQKPGKGPKLLIYDASNLQRGVPSRFSGGGSGTDFTLIISSLQPEDVGTYYCQQYDGLPFTFGGGTKVEIKR for me?
output: > 500 µg/mL

input: // IC50 of true virus neutralization H1N1 CA/09 lookup, key: P44 (antibody, V domains shown) VH: EVQLVESGGGLVQPGGSLRLSCAASGFTIDGWWIHWVRQAPGKGLEWVAGIWPFGGFTSYADSVKGRFTISADTSKNTAYLQMNSLRAEDTAVYYCARSYSGYSGDYWGQGTLVTVSS VL: DIQMTQSPSSLSASVGDRVTITCRASQDVNNNVAWYQQKPGKAPKLLIYWSSSLYSGVPSRFSGSGSGTDFTLTISSLQPEDFATYYCQQYYNFPVTFGQGTKVEIKR
output: > 500 µg/mL

From: patent US20210070843A1
